test system: Hepatotoxicity; test: FDA HLAED, alkaline phosphatase increase; details: human
VALUE TYPE: Alkaline Phosphatase Increase - Number of Reports

See these solved cases before continuing.
MOLECULE: Cc1cn([C@H]2C=C[C@@H](CO)O2)c(=O)[nH]c1=O
VALUE MEASURED: >= 4
--
MOLECULE: CN(N=O)C(=O)N[C@@H](C=O)[C@@H](O)[C@H](O)[C@H](O)CO
VALUE MEASURED: < 4
--
MOLECULE: Nc1c2c(nc3ccccc13)CCCC2
VALUE MEASURED: >= 4
--
MOLECULE: N=C(N)NC(=O)Cc1c(Cl)cccc1Cl
VALUE MEASURED: < 4

// switching to the query molecule
Ask | Note down Alkaline Phosphatase Increase - Number of Reports recorded for CC[N+](C)(C)Cc1ccccc1Br.Cc1ccc(S(=O)(=O)[O-])cc1 [BRETYLIUM TOSYLATE]
Reply | < 4

---

test system: Hepatotoxicity; experiment: FDA HLAED, serum glutamic pyruvic transaminase (SGPT) increase; settings: human
Is SGPT Increase - Index Value at least 0.1? Then condition met. If not, condition not met.

Known results for molecules:
MOLECULE: CCOC(=O)OC(C)OC(=O)[C@@H]1N2C(=O)[C@@H](NC(=O)[C@H](N)c3ccccc3)[C@H]2SC1(C)C (stereo partly drawn)
CATEGORY: condition not met
--
MOLECULE: C[C@@H]1C[C@H]2[C@@H]3CCC4=CC(=O)C=C[C@]4(C)[C@@]3(Cl)[C@@H](O)C[C@]2(C)[C@@]1(O)C(=O)CCl
CATEGORY: condition not met
--
MOLECULE: CC1=C(CC(=O)O)c2cc(F)ccc2/C1=C\c1ccc([S+](C)[O-])cc1 (stereo not drawn)
CATEGORY: condition not met
--
MOLECULE: CCOC(=O)[C@H](CCc1ccccc1)N[C@@H](C)C(=O)N1CCC[C@H]1C(=O)O
CATEGORY: condition met

Ask | Check if SGPT Increase - Index Value >= 0.1 (inclusive). Item: `Nc1nc(O)c2ncn(COC(CO)CO)c2n1`
Reply | condition met

---

tested on: Hepatotoxicity; assay: FDA HLAED, serum glutamic oxaloacetic transaminase (SGOT) increase; details: human
VALUE TYPE: SGOT Increase - Index Value

See these solved cases before continuing.
COMPOUND: CC[C@H]1OC(=O)[C@H](C)[C@@H](O[C@H]2C[C@@](C)(OC)[C@@H](O)[C@H](C)O2)[C@H](C)[C@@H](O[C@@H]2O[C@H](C)C[C@H](N(C)C)[C@H]2O)[C@](C)(O)C[C@@H](C)CN(C)[C@H](C)[C@@H](O)[C@]1(C)O [AZITHROMYCIN]
STUDY SYSTEM: Hepatotoxicity
VALUE MEASURED: 2.9
--
COMPOUND: CCCCCc1cc(O)c2c(c1)OC(C)(C)[C@@H]1CCC(C)=C[C@@H]21 [DRONABINOL]
STUDY SYSTEM: Hepatotoxicity
VALUE MEASURED: 0

// switching to the query compound
Ask | Note down SGOT Increase - Index Value recorded for CC(C)NCC(O)COc1ccc(CCOCC2CC2)cc1 (stereo not drawn) [BETAXOLOL]
Reply | 0

---

tested on: Hepatotoxicity; assay: FDA HLAED, alkaline phosphatase increase; conditions: human
VALUE TYPE: Alkaline Phosphatase Increase - Number of Reports

See these solved cases before continuing.
MOLECULE: COC(=O)C1=C(C)NC(C)=C(C(=O)OCCN(C)Cc2ccccc2)C1c1cccc([N+](=O)[O-])c1 (stereo not drawn) [NICARDIPINE]
VALUE MEASURED: >= 4

MOLECULE: C[C@@H]1CN([C@H]2CC[C@](C#N)(c3ccc(F)cc3)CC2)CC[C@]1(C(=O)O)c1ccccc1 [LEVOCABASTINE]
VALUE MEASURED: < 4

MOLECULE: OCc1cc(C(O)CNCCCCCCOCCCCc2ccccc2)ccc1O (stereo not drawn) [SALMETEROL]
VALUE MEASURED: < 4

MOLECULE: Cc1c(OCC(F)(F)F)ccnc1C[S+]([O-])c1nc2ccccc2[nH]1 (stereo not drawn) [LANSOPRAZOLE]
VALUE MEASURED: < 4

MOLECULE: CC[C@H](C)C(=O)O[C@H]1C[C@H](O)C=C2C=C[C@H](C)[C@H](CC[C@@H](O)C[C@@H](O)CC(=O)O)[C@H]21 [PRAVASTATIN]
VALUE MEASURED: >= 4

MOLECULE: CC1(C)C(C=C(Cl)Cl)C1C(=O)OCc1cccc(Oc2ccccc2)c1 (stereo not drawn) [PERMETHRIN]
VALUE MEASURED: < 4

Ask | Note down Alkaline Phosphatase Increase - Number of Reports recorded for `COc1ccc(-c2ccc3cc(C(=O)O)ccc3c2)cc1C12CC3CC(CC(C3)C1)C2`
Reply | < 4

Ask | Note down Alkaline Phosphatase Increase - Number of Reports recorded for CCOC(=O)/C=C(C)/C=C/C=C(C)/C=C/c1c(C)cc(OC)c(C)c1C [ETRETINATE]
Reply | >= 4

Data provenance: ChEMBL document CHEMBL1697781
